molecular target: Beta-secretase 1 (Homo sapiens); test: Inhibition of recombinant BACE1 (unknown origin) at 0.67 mM
Measured Attribute: inhibition (%)

{"columns": ["Compound", "Measured Attribute", "Reported"],
 "data": [
  ["COc1ccc(CCCC(C(=O)CCc2ccc(OC)c(OC)c2)C(C)C)cc1OC (stereo unspecified)", "inhibition", 5],
  ["O=C(/C=C(O)/C=C/c1cccc([N+](=O)[O-])c1)/C=C/c1ccc(O)c(O)c1", "inhibition", 18],
  ["O=C(/C=C(O)/C=C/c1c[nH]c2ccccc12)/C=C/c1ccc(O)c(O)c1", "inhibition", 71],
  ["COc1ccc(/C=C/C(=O)/C(=C(O)/C=C/c2ccc(OC)c(OC)c2)C(C)C)cc1OC", "inhibition", 4],
  ["O=C(/C=C(O)/C=C/c1cccnc1)/C=C/c1ccc(O)c(O)c1", "inhibition", 21],
  ["COc1ccc(CCC(O)C(C(C)C)C(O)CCc2ccc(OC)c(OC)c2)cc1OC (stereo unspecified)", "inhibition", 9],
  ["COc1cc(/C=C/C(=O)/C(=C(O)/C=C/c2ccc(O)c(OC)c2)C(C)C)ccc1O", "inhibition", 6]
]}

(a) O=C(/C=C(O)/C=C/c1ccccc1)/C=C/c1ccc(O)c(O)c1
(b) COc1ccccc1/C=C/C(O)=C/C(=O)/C=C/c1ccc(O)c(O)c1
(c) COCOc1ccc(/C=C/C(=O)/C=C(O)/C=C/c2ccc(OCOC)c(OC)c2)cc1OC
(d) O=C(/C=C(O)/C=C/c1ccc(O)cc1)/C=C/c1ccc(O)c(O)c1
# input Thanks in advance: please rank these 4 entries by inhibition, highest to lowest. Write out the labels following the order that was asked for.
# output b, a, d, c

----------
target: Beta-secretase 1 (Homo sapiens, UniProt P56817); test: Inhibition of recombinant BACE1 (unknown origin) at 1.3 mM
Sequence (P56817 whole entry): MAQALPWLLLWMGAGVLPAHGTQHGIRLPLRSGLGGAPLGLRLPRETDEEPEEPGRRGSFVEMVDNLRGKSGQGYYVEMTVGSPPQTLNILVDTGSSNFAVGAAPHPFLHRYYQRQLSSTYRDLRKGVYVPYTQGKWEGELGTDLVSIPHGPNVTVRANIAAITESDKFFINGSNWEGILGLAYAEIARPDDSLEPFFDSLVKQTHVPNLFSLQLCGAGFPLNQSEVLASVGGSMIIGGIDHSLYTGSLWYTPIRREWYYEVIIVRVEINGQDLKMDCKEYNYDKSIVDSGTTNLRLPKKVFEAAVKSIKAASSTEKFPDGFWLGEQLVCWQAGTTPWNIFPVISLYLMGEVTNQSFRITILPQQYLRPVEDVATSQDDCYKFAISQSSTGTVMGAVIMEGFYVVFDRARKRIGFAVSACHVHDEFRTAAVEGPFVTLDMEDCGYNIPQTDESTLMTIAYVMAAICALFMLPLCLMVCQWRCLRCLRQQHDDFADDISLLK
Measured Attribute: inhibition (%)

{"columns": ["Compound", "U", "inhibition"],
 "data": [
  ["COCCOCOc1ccc(/C=C/C(=O)/C=C(O)/C=C/c2ccc(O)c(OC)c2)cc1OC", "%", 17],
  ["COCCOCOc1ccc(CCC(=O)CC(O)CCc2ccc(OCOCCOC)c(OC)c2)cc1OC (stereo not given)", "%", 15],
  ["COCCOCOC(=C\\C(=O)/C=C/c1ccc(OCOCCOC)c(OC)c1)/C=C/c1ccc(OCOCCOC)c(OC)c1", "%", 36]
]}

(1) COc1cc(CCC(=O)CC(O)CCc2ccc(O)c(OC)c2)ccc1O (stereo not given)
(2) COCCOCOc1ccc(CCC(=O)/C=C(\O)CCc2ccc(OCOCCOC)c(OC)c2)cc1OC
# input // returns 1 or 2 , whichever has the lower inhibition Answer format: the label of the selected item.
# output 1
(1: 7%, 2: 17%)
